# System: DLD1
# experiment.description: TCF/Wnt firefly luciferase reporter signal relative to plate median (fraction of plate median); higher = higher Wnt reporter signal
# measurement.parameters: 5 µM; treatment time 24 h; reporter: 7TFP
assay.readout: TCF/Wnt firefly luciferase reporter signal
Give bare numbers.

Worked cases, TCF/Wnt firefly luciferase reporter signal given:
C[C@]12CCC3c4ccc(OC(=O)c5ccccc5)cc4CCC3C1CCC2=O (some centres undefined); 0.978
CC(C)CC1NC(=O)C2CCCN2C1=O (single isomer, unassigned; isomere) [Cyclo(leucylprolyl) (Isomere)]; 0.69
CCCCCCCCCCCCCCCC(=O)OC/C=C(C)/C=C/C=C(C)/C=C/C1=C(C)CCCC1(C)C; 0.885

-- ask // TCF/Wnt firefly luciferase reporter signal lookup, key: `CC(C)c1c(C(=O)Nc2ccccc2)c(-c2ccccc2)c(-c2ccc(F)cc2)n1CC[C@@H](O)C[C@@H](O)CC(=O)O`
-- reply 0.966

====

# Tested on: SW480
# experiment.description: TCF/Wnt firefly luciferase reporter signal relative to plate median (fraction of plate median); higher = higher Wnt reporter signal
# measurement.parameters: 5 µM; treatment time 24 h; reporter: 7TFP
Provide the reported TCF/Wnt firefly luciferase reporter signal of each item.
Answers are plain numbers.

Worked cases, TCF/Wnt firefly luciferase reporter signal given:
OC(CCN1CCCCC1)(c1ccccc1)c1ccccc1; 0.878
Oc1cc2c(cc1O)C1c3ccc(O)c(O)c3OCC1(O)C2 (stereo unspecified); 1.04
O=C(Nc1ccc(C(=O)O)c(O)c1)c1ccccc1; 1.07

Could you report TCF/Wnt firefly luciferase reporter signal for every entry in the following list?
1. N=C(N)N
2. C[C@H](CCC(=O)O)[C@H]1CC[C@H]2[C@@H]3CC[C@@H]4CCCC[C@]4(C)[C@H]3CC[C@]12C
3. OCCOCCN1CCN(C2=Nc3ccccc3Sc3ccccc32)CC1
4. S=c1[nH]cnc2nc[nH]c12
5. COc1ccc(-c2coc3cc(O)cc(O)c3c2=O)cc1
6. COc1ccc2c(c1OC)C(=O)O[C@@H]2[C@H]1c2c(cc3c(c2OC)OCO3)CCN1C
7. C[C@@H]1C/C=C2\SC[C@@H](NC(=O)c3coc(n3)C[C@H](O)C[C@H](O)/C=C/C=C/CNC2=O)C(=O)O1 [Griseoviridin]
8. NC(=O)NO

-- reply
1: 1.02; 2: 1.03; 3: 1.08; 4: 1.03; 5: 1.05; 6: 0.945; 7: 0.957; 8: 1.03

====

Provide the reported cell viability of each item.
# System: SW480
# experiment.description: cell viability (CellTiter-Glo) relative to plate median (fraction of plate median); higher = more viable cells
# measurement.parameters: 5 µM; treatment time 24 h; reporter: 7TFP
One number for each entry.

CCCCCCc1ccc(O)cc1O; 1.07
CNCC[C@H](Oc1cccc2ccccc12)c1cccs1; 1.05
Cc1cc(O)c2c(c1O)C(=O)c1c(O)cc(C)c(O)c1C2=O; 0.986
Cc1cc(O)c(C)c(O)c1C(=O)O; 0.996
CC(C)[C@H](NC(=O)[C@H](Cc1ccc(O)cc1)NC(=O)[C@@H](NC(=O)C(F)(F)F)C(C)C)C(=O)O; 0.969
CC[C@H]1OC(=O)[C@H](C)[C@@H](O[C@H]2C[C@@](C)(OC)[C@@H](O)[C@H](C)O2)[C@H](C)[C@@H](O[C@@H]2O[C@H](C)C[C@H](N(C)C)[C@H]2O)[C@](C)(O)C[C@@H](C)[C@@H]2N[C@@H](COCCOC)O[C@H]([C@H]2C)[C@]1(C)O; 0.931
CC(C(=O)O)c1cccc(Oc2ccccc2)c1 (stereo unspecified); 0.988
COC(=O)C1=C(C)NC(C)=C(C(=O)OC)C1c1ccccc1[N+](=O)[O-]; 1.06
O=C(c1ccc(OCCN2CCCCC2)cc1)c1c(-c2ccc(O)cc2)sc2cc(O)ccc12; 0.938
OC(CCN1CCCCC1)(c1ccccc1)C1CCCCC1 (stereo unspecified); 0.945

Could you now look at the following compound, please?
-- ask // cell viability lookup, key: NCCCC(=O)O [gamma-AMINOBUTYRIC ACID]
-- reply 1.04

====

# Test system: DLD1
# experiment.description: TCF/Wnt firefly luciferase reporter signal relative to plate median (fraction of plate median); higher = higher Wnt reporter signal
# measurement.parameters: 10 µM; treatment time 24 h; reporter: TCF4/Wnt
Provide the reported TCF/Wnt firefly luciferase reporter signal of each item.
Give bare numbers.

Cn1c(=O)c(F)c(Nc2ccc(I)cc2F)c2c(=O)n(C[C@@H](O)CO)cnc21; 1.61
O=C(NOC[C@H](O)CO)c1ccc(F)c(F)c1Nc1ccc(I)cc1F; 1.28
C[C@@H]1CN(CC(=O)Nc2ccc3c(c2)Cc2cccc(-c4cc(=O)cc(N5CCOCC5)o4)c2S3)C[C@H](C)O1; 1.32
FC(F)(F)c1ccc(Nc2nc3ccc(Oc4ccnc(-c5ncc(C(F)(F)F)[nH]5)c4)cc3[nH]2)cc1; 1.16

Could you report TCF/Wnt firefly luciferase reporter signal for every entry in the following list?
1. Cc1nc(Nc2ncc(C(=O)Nc3c(C)cccc3Cl)s2)cc(N2CCN(CCO)CC2)n1
2. CC[C@@H]1C(=O)N(C)c2cnc(Nc3ccc(C(=O)N[C@H]4CC[C@H](N5CCN(CC6CC6)CC5)CC4)cc3OC)nc2N1C(C)C
3. CN(C[C@@H]1COCCO1)S(=O)(=O)Nc1ccc2ccc3ncc(-c4cnn(C)c4)cc3c(=O)c2c1
4. Cc1cnc(Nc2ccc(OCCN3CCCC3)cc2)nc1Nc1cccc(S(=O)(=O)NC(C)(C)C)c1
5. Cc1ccc(C(=O)Nc2cccc(C(F)(F)F)c2)cc1Nc1nc(-c2cccnc2)nc2c1cnn2C

-- reply
1: 0.487; 2: 1.98; 3: 1.07; 4: 1.14; 5: 0.925

Could you report TCF/Wnt firefly luciferase reporter signal for every entry in the following list?
1. Cc1cc(C(C)Nc2ccccc2)c2nc(N3CCOCC3)cc(=O)n2c1 (centres undefined)
2. CCC(=O)N1CCN(c2ccc(-n3c(=O)ccc4cnc5ccc(-c6cnc7ccccc7c6)cc5c43)cc2C(F)(F)F)CC1
3. CNC(=O)CN1CCC(Oc2cc3c(Nc4cccc(Cl)c4F)ncnc3cc2OC)CC1
4. CCc1cnn2c(NCc3ccc[n+]([O-])c3)cc(N3CCCC[C@H]3CCO)nc12
5. Cc1cnc(Nc2ccc(N3CCN(C)CC3)cc2)nc1Nc1cccc(S(=O)(=O)NC(C)(C)C)c1

-- reply
1.21
0.311
0.862
0.304
2.17

====

# Tested on: HCT116
# experiment.description: cell viability (CellTiter-Glo) relative to plate median (fraction of plate median); higher = more viable cells
# measurement.parameters: 5 µM; treatment time 24 h; reporter: TCF4/Wnt
assay.readout: cell viability
Answers are plain numbers.

Worked cases, cell viability given:
CC(C)CCC[C@@H](C)[C@H]1CC[C@H]2[C@@H]3CC=C4CC(=O)CC[C@]4(C)[C@H]3CC[C@]12C; 1.01
O=[N+]([O-])c1cccc2c(Br)[nH]nc12; 1.02
CN(C)CCc1c[nH]c2ccc(Cn3cncn3)cc12; 1.09
COC(=O)C1=C(C)NC(C)=C(C(=O)OCC(C)C)C1c1ccccc1[N+](=O)[O-] (stereo not given); 1
O=C(Nc1ccc(C(=O)O)c(O)c1)c1ccccc1; 0.924

Could you report cell viability for every entry in the following list?
1. O=C1c2ccccc2C(=O)C1c1ccccc1
2. O=C(O)CN(CC(=O)O)Cc1cc2c(cc1O)Oc1cc(O)c(CN(CC(=O)O)CC(=O)O)cc1C21OC(=O)c2ccccc21

-- reply
[1.02, 0.914]

Could you report cell viability for every entry in the following list?
1. Clc1ccc(CSC(Cn2ccnc2)c2ccc(Cl)cc2Cl)cc1 (stereo not given)
2. C=CC1=C(C)c2cc3[nH]c(cc4nc(cc5[nH]c(cc1n2)c(C)c5CCC(=O)O)C(CCC(=O)O)=C4C)c(C)c3C=C
3. C/C=C/C1=CC(=O)[C@@H](O)[C@@H]1O [Terrein]

-- reply
[0.932, 0.964, 1.03]

====

# System: SW480
# experiment.description: cell viability (CellTiter-Glo) relative to plate median (fraction of plate median); higher = more viable cells
# measurement.parameters: 5 µM; treatment time 24 h; reporter: 7TFP
assay.readout: cell viability

C[C@@H]1C[C@H]2[C@@H]3C[C@H](F)C4=CC(=O)C=C[C@]4(C)[C@@]3(F)[C@@H](O)C[C@]2(C)[C@@]1(O)C(=O)CO; 1.03
O=C(O)c1ccccc1Nc1cccc(C(F)(F)F)c1; 0.95
COc1c(O)cc2c(c1O)[C@@H]1O[C@H](CO)[C@@H](O)[C@H](O)[C@H]1OC2=O; 1.02
CC(=O)O[C@@H]1CC[C@@]2(C)C(C[C@@H](OC(C)=O)[C@@]3(C)C4=CC(=O)O[C@@H](c5ccoc5)[C@]4(C)CCC23)C1(C)C (stereo partly drawn) [3alpha-ACETOXYDIHYDRODEOXYGEDUNIN]; 0.956
Nc1ccc(S(N)(=O)=O)cc1; 1.06
COc1c2ccoc2c(OC)c2oc(=O)ccc12; 1.07
CN(C)[C@@H]1C(O)=C(C(N)=O)C(=O)[C@@]2(O)C(O)=C3C(=O)c4c(O)ccc(Cl)c4[C@@H](O)[C@H]3C[C@@H]12; 0.959
CCCCCCCCCCCCCCCCOP(=O)([O-])OCC[N+](C)(C)C; 0.969

Could you now look at the following compound, please?
-- ask // cell viability lookup, key: Cc1nc2ccccc2c(=O)[nH]1 [2-Methyl-3H-quinazoline-4-on]
-- reply 0.979

Ref: the supplement of paper PMC6522484
